test_method_notes: Cytotoxicity against human L02 cells assessed as reduction in cell viability incubated for 48 hrs by MTT assay
Type: toxicity, cell-based
parameter: IC50 at 48 h

Cc1ccc(C(=O)Nc2ccc(CN3CCN(C)CC3)c(C(F)(F)F)c2)cc1Nc1cccc2c1C(=O)C(=O)N2C :: > 80 µM
Cc1cn(-c2cc(NC(=O)c3ccc(C)c(Nc4nccc(-c5cccnc5)n4)c3)cc(C(F)(F)F)c2)cn1 [NILOTINIB] :: 37 µM

The molecule `Cc1ccc(C(=O)Nc2cc(-c3cnn(C)c3)cc(C(F)(F)F)c2)cc1Nc1cccc2c1C(=O)C(=O)N2C` showed IC50 at 48 h equal to > 80 µM

====

Provide the recorded IC50 at 48 h for the entries that follow.
test_method_notes: Cytotoxicity against HEK293 cells assessed as reduction in cell viability incubated for 48 hrs by MTT assay
Format: toxicity, cell-based
experimental_parameters: human
Give bare numbers, in µM.

Cc1ccc(C(=O)Nc2ccc(CN3CCN(C)CC3)c(C(F)(F)F)c2)cc1Nc1cccc2c1C(=O)C(=O)N2C :: 16.6

Now consider a different molecule.
The recorded IC50 at 48 h for `Cc1cn(-c2cc(NC(=O)c3ccc(C)c(Nc4nccc(-c5cccnc5)n4)c3)cc(C(F)(F)F)c2)cn1` is 8.2

====

Could you please report measured IC50 at 48 h for the items listed next?
test_method_notes: Cytotoxicity against human SH-SY5Y cells assessed as reduction in cell viability incubated for 48 hrs by MTT assay
Assay type: toxicity, cell-based

Answer for every listed entry: what is its IC50 at 48 h? The entries follow.
1. Cc1ccc(C(=O)Nc2ccc(CN3CCN(C)CC3)c(C(F)(F)F)c2)cc1Nc1cccc2c1C(=O)C(=O)N2C
2. Cc1ccc(C(=O)Nc2cc(-c3cnn(C)c3)cc(C(F)(F)F)c2)cc1Nc1cccc2c1C(=O)C(=O)N2C

23.6 µM
> 80 µM
